The entries below are paired with their reported protein stability index.
B1: C2orf65 (parent)
chain: QLDWDELETNQQHFHALCHSLLVS

- Variants of: B1
- test: protein stability index of a GFP-peptide fusion (GPS, HEK-293T) (PSI 1-6); higher = more stable;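 note: lentivirally expressed fusions sorted by FACS into six bins by GFP to DsRed ratio, PSI derived from sequencing read proportions per bin multiplied by bin number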
- run parameters: c terminus: a fixed tail appended
result type: protein stability index

[
  {
    "variant spec": "Q11K",
    "quantitative readout": 1.97
  },
  {
    "variant spec": "D5H",
    "quantitative readout": 2.04
  },
  {
    "variant spec": "L2F",
    "quantitative readout": 1.98
  },
  {
    "variant spec": "D3N",
    "quantitative readout": 2.01
  },
  {
    "variant spec": "A16M",
    "quantitative readout": 1.95
  },
  {
    "variant spec": "Q11W",
    "quantitative readout": 2.01
  },
  {
    "variant spec": "H19V",
    "quantitative readout": 1.96
  },
  {
    "variant spec": "Q1R",
    "quantitative readout": 1.96
  }
]
